Quick list: Plant response rating, Pigweed per entry.
system: pigweed (Amaranthus retroflexus); assay: Test A preemergence; type: in vivo; conditions: 500 g ai/ha, preemergence; 0 to 100 scale, 0 = no effect, 100 = complete control
Respond numerically, and do not add a unit to the figure.

Solved entries:
{"molecule": "CN1CC(c2cccc(OC(F)F)c2)C(C(=O)Nc2cccc(F)c2F)C1=O (centres unmarked) [Compound 616]", "Plant response rating, Pigweed": 90}
{"molecule": "CN1CC(c2cccc(F)c2)C(C(=O)Nc2cccc(F)c2F)C1=O (centres unmarked) [Compound 632]", "Plant response rating, Pigweed": 70}
{"molecule": "O=C1NCC(c2ccc3c(c2)OC(F)(F)O3)C1C(=O)Nc1cccc(F)c1F (centres unmarked) [Compound 635]", "Plant response rating, Pigweed": 70}
{"molecule": "O=C1NCC(c2ccc(I)cc2)C1C(=O)Nc1cccc(F)c1F (racemic) [Compound 700]", "Plant response rating, Pigweed": 60}

IN: Recorded Plant response rating, Pigweed of CN1CC(c2cc(F)cc(F)c2)C(C(=O)Nc2ccc(F)c(F)c2F)C1=O (centres unmarked) [Compound 646] , please.
OUT: 70

* * *

Measured pest or weed control at 125 g/ha values are reported for all entries that follow.
system: Kochia (Kochia scoparia); experiment: Test A preemergence; assay type: in vivo; conditions: Bassia scoparia, pre-emergence, 240 h, 125 g ai/ha, preemergence; 0 to 100 scale where 0 is no effect and 100 is complete control; read-out: Kochia plant response rating
From the text: […]
Record the value in %, omitting the unit from your answer.

{"molecule": "CC(C)c1cccc([C@H]2CN(C)C(=O)[C@@H]2C(=O)Nc2ccc(F)cc2F)c1 [Compound 821]", "pest or weed control at 125 g/ha / %": 70}
{"molecule": "CN1C[C@H](c2cccc(F)c2)[C@@H](C(=O)Nc2ccccc2F)C1=O [Compound 822]", "pest or weed control at 125 g/ha / %": 70}
{"molecule": "CN1CC(c2cccc(C=O)c2)C(C(=O)Nc2ccccc2F)C1=O (stereo not drawn) [Compound 844]", "pest or weed control at 125 g/ha / %": 0}
{"molecule": "C=CCOc1cccc(C2CN(C)C(=O)C2C(=O)Nc2cccc(F)c2F)c1 (stereo not drawn) [Compound 933]", "pest or weed control at 125 g/ha / %": 50}
{"molecule": "O=C1NC[C@H](c2ccc3c(c2)CCCO3)[C@H]1C(=O)Nc1ccccc1F [Compound 885]", "pest or weed control at 125 g/ha / %": 0}

IN: Field request: pest or weed control at 125 g/ha | item: CC(C)(C)c1ccc([C@H]2CNC(=O)[C@@H]2C(=O)Nc2cccc(F)c2F)cc1 [Compound 847]
OUT: 0

IN: And then Cc1c(F)ccc([C@H]2CN(C)C(=O)[C@@H]2C(=O)Nc2ccc(F)c(F)c2F)c1F [Compound 836] , what is it?
OUT: 90

* * *

test system: rice (Oryra sativa); assay: Test B flooded paddy test; type: in vivo; details: Flood, 250 g ai/ha; 0 to 100 scale where 0 is no effect and 100 is complete control; 13 to 15 d
assay_endpoint: Plant response rating, Rice

Completed entries (count: 3):
{"compound": "CCc1cc(C2CNC(=O)C2C(=O)Nc2cccc(F)c2F)cs1 (racemic) [Compound 658]", "assay_target": "rice (Oryra sativa)", "Plant response rating, Rice": 0}
{"compound": "Cc1ccc(C2CNC(=O)C2C(=O)Nc2ccc(F)cc2F)c(F)c1 (racemic) [Compound 508]", "assay_target": "rice (Oryra sativa)", "Plant response rating, Rice": 0}
{"compound": "CCc1cc(C2CNC(=O)C2C(=O)Nc2ccccc2F)cs1 (racemic) [Compound 657]", "assay_target": "rice (Oryra sativa)", "Plant response rating, Rice": 0}

IN: Give the reported Plant response rating, Rice for C=C(C)CN1CC(c2cccc(C(F)(F)F)c2)C(C(=O)Nc2cccc(F)c2F)C1=O (centres unmarked) [Compound 479] (system: rice (Oryra sativa)).
OUT: 0

IN: Param item: O=C1NCC(c2ccc(C(F)(F)F)c(F)c2)C1C(=O)Nc1ccccc1F (racemic) [Compound 521]
OUT: 0

IN: Now give it for CN1CC(c2cccc(F)c2)C(C(=O)Nc2cccc(F)c2F)C1=O (centres unmarked) [Compound 632] too.
OUT: 30

IN: Now try CS(=O)(=O)c1ccccc1NC(=O)C1C(=O)NCC1c1ccc(Br)cc1 (centres unmarked) [Compound 452] .
OUT: 0

IN: Would you mind doing O=C1NCC(c2cc(C(F)(F)F)cc(C(F)(F)F)c2)C1C(=O)Nc1ccc(F)cc1F (centres unmarked) [Compound 589] as well?
OUT: 20

IN: Next entry: Cc1cc(C2CNC(=O)C2C(=O)Nc2cccc(F)c2F)ccc1F (centres unmarked) [Compound 400]
OUT: 20

IN: Do the same for O=C1NCC(c2cccc(F)c2)C1C(=O)Nc1ccccc1C(F)(F)F (racemic) [Compound 376] please
OUT: 0

IN: Next record, please: O=C1NCC(c2cc(F)c(F)cc2F)C1C(=O)Nc1ccccc1F (racemic) [Compound 549]
OUT: 0

IN: One more compound: O=C1NCC(c2cc(F)ccc2F)C1C(=O)Nc1cccc(F)c1F (racemic) [Compound 546]
OUT: 20

IN: Repeat for the following compound: CN1CC(c2cccc(OC(F)(F)C(F)F)c2)C(C(=O)Nc2ccccc2F)C1=O (centres unmarked) [Compound 539]
OUT: 0

IN: Now give it for O=C1NCC(c2cc(F)ccc2F)C1C(=O)Nc1ccc(F)cc1F (racemic) [Compound 545] too.
OUT: 0

IN: Follow-up entry: O=C1NCC(c2ccccc2-c2ccccc2)C1C(=O)Nc1ccccc1F (racemic) [Compound 381]
OUT: 0

IN: Now this one: O=C(Nc1ccccc1F)C1C(=O)N(c2ccccc2)CC1c1cccc(C(F)(F)F)c1 (centres unmarked) [Compound 456]
OUT: 0

IN: Moving on to Nc1cccc(C2CNC(=O)C2C(=O)Nc2cccc(F)c2F)c1 (centres unmarked) [Compound 354]
OUT: 20
